B1: library; numbered along this chain (parent)
chain: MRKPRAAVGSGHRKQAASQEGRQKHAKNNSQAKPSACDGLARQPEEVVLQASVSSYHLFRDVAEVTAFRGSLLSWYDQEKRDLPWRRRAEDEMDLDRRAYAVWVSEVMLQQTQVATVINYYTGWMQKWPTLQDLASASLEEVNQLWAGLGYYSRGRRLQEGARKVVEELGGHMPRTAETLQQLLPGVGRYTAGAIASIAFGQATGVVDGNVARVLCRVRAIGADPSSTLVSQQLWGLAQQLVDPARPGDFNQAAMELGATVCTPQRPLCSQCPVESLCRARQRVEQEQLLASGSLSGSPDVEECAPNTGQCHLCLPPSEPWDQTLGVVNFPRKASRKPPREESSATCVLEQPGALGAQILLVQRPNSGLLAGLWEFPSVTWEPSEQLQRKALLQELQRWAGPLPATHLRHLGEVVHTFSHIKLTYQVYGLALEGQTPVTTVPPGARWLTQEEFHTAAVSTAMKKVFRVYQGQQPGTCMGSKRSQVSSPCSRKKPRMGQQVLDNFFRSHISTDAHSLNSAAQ

Variants of: B1
Assay: 8OG:A repair function score (normalized; synonymous = 0, nonsense = -1) (normalized log-likelihood score); higher = more repair activity (WT-like);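 note: cells sorted at 72 h after reporter transfection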
Conditions: with 8OG:A DNA repair reporter (GFP) in HEK-293 MUTYH KO cells
Record form. Attribute: 8OG:A repair function score. Fill in for each entry.
Format: numeric value only, no unit, no commentary.

Qu. Fill in 8OG:A repair function score for record E79S
Ans. -0.00165

Qu. Please report 8OG:A repair function score for the following variant: L83V
Ans. -0.316

Qu. // fetch 8OG:A repair function score given entry L229T
Ans. -0.124

Qu. Note down 8OG:A repair function score recorded for P225E
Ans. -0.604

Qu. Give 8OG:A repair function score for Y76G
Ans. -1.14

Qu. Using the record for A36F , state its measured 8OG:A repair function score.
Ans. 0.0951

Qu. Please report the measured 8OG:A repair function score for V65K
Ans. 0.00609

Qu. Note 8OG:A repair function score for the variant shown: I421A
Ans. -0.443

Qu. Identify measured 8OG:A repair function score corresponding to D322P
Ans. -0.322

Qu. Answer with the recorded 8OG:A repair function score for the variant listed here: E451D
Ans. -0.178

Qu. Indicate its recorded 8OG:A repair function score; the variant in question is R163A
Ans. -0.182

Qu. Answer with the recorded 8OG:A repair function score of Q363L only.
Ans. -0.242

Qu. Read the entry P44Y and write its reported 8OG:A repair function score.
Ans. -0.212

Qu. Identify the reported 8OG:A repair function score for the following entry. Q282K
Ans. 0.0141

Qu. Complete the entry with 8OG:A repair function score for R506I
Ans. 0.0189

Qu. Tell us which 8OG:A repair function score value is on record for V284K
Ans. -0.0279

Qu. # return recorded 8OG:A repair function score for entry A6P
Ans. -0.0227

Qu. Input S55A , output reported 8OG:A repair function score.
Ans. 0.00283

Qu. Answer with the recorded 8OG:A repair function score of S515N only.
Ans. 0.0152

Qu. Item Q288L : provide 8OG:A repair function score
Ans. -0.0159

Qu. For the variant C304N , give its reported 8OG:A repair function score.
Ans. -0.439

Qu. Specify 8OG:A repair function score for E45N and stop.
Ans. 0.01

Qu. Please report the measured 8OG:A repair function score for V458S
Ans. -0.192

Qu. Write down 8OG:A repair function score measured for item S419R
Ans. -0.334

Qu. Quickly give me recorded 8OG:A repair function score for Q265L
Ans. -0.0663

Qu. For the variant L396A , give its measured 8OG:A repair function score value.
Ans. -0.329

Qu. Quick one: give measured 8OG:A repair function score for Y469E
Ans. -0.89

Qu. Hello, please tell me recorded 8OG:A repair function score for this one: T130G
Ans. -0.0108

Qu. Quick one: give measured 8OG:A repair function score for F376W
Ans. -0.757

Qu. Please look at this variant and report its 8OG:A repair function score: V47P
Ans. -0.0988

Qu. # return recorded 8OG:A repair function score for entry V441C
Ans. -0.261

Qu. Answer with the recorded 8OG:A repair function score of P352E only.
Ans. -0.0129

Qu. Check the records and state 8OG:A repair function score for G186S
Ans. -0.34

Qu. Consider the variant G368K . State its measured 8OG:A repair function score.
Ans. -0.348

Qu. Give the reported value of 8OG:A repair function score for this record: W399F
Ans. -0.284

Qu. Please supply the value of reported 8OG:A repair function score for the item V214H
Ans. -0.795

Qu. Answer with the recorded 8OG:A repair function score of R42Y only.
Ans. 0.0172

Qu. Give 8OG:A repair function score for G293R
Ans. -0.00692

Qu. Please indicate 8OG:A repair function score recorded for G356E
Ans. -0.141

Qu. Supply recorded 8OG:A repair function score for D243M here.
Ans. -0.753

Qu. Check the records and state 8OG:A repair function score for Q78E
Ans. 0.00685

Qu. Provide only the value of recorded 8OG:A repair function score for I359D
Ans. -0.946

Qu. Provide only the value of recorded 8OG:A repair function score for V465K
Ans. -1.19

Qu. Annotate the variant K492H with its measured 8OG:A repair function score.
Ans. -0.0225

Qu. Identify the reported 8OG:A repair function score for the following entry. A431K
Ans. 0.126

Qu. Determine from records and report 8OG:A repair function score for V107T
Ans. -0.0133
